Ref: the supplement of paper PMC10065799

subject_of_test: Fyn (UniProt P06241)
Sequence (P06241 whole entry, looked up): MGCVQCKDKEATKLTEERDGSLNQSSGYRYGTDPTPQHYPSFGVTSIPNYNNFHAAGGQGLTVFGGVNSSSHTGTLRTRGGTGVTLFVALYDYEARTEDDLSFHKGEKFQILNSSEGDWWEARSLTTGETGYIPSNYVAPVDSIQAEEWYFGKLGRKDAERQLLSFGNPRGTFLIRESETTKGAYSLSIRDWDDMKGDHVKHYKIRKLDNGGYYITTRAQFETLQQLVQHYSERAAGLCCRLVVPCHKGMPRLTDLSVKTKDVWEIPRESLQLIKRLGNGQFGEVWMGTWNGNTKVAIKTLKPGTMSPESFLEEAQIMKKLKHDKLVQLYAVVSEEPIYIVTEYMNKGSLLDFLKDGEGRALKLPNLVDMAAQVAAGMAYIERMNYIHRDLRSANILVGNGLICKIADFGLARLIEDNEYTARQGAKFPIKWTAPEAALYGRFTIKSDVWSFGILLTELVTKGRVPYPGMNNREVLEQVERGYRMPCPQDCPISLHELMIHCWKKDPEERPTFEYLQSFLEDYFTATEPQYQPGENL
measurement_notes: phosphorylation enrichment, bacterial display (enrichment ratio); higher = better substrate or ligand; peptides without Tyr show the background;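 also: 11-residue human phosphosite peptides and single-mutation variants displayed on the E. coli surface, counted by deep sequencing, each peptide's frequency after selection divided by its frequency in the unselected input library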;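 also: frequency after pTyr selection over input frequency; kinase dosed for 20-30% of maximal phosphorylation in three min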
Rule: phosphorylation enrichment under 0.7 gives not satisfied, otherwise satisfied.

Inquiry: Determine whether measured phosphorylation enrichment meets or exceeds 0.7 for KDHLDYKFQPR [SOX9_Y172_P170L_YF]
Reply text: not satisfied

Inquiry: Determine whether measured phosphorylation enrichment meets or exceeds 0.7 for IYLGAYDRFLP [SLC22A5_Y486_V481I]
Reply text: satisfied

Inquiry: Determine whether measured phosphorylation enrichment meets or exceeds 0.7 for LNFNEYFRDLN [HPRT1_Y198_D194N_YF]
Reply text: satisfied

Inquiry: Determine whether measured phosphorylation enrichment meets or exceeds 0.7 for SGTYQYIIAKF [FOXL2_Y83_I80T]
Reply text: satisfied

Inquiry: Determine whether measured phosphorylation enrichment meets or exceeds 0.7 for YGAHKYHPLPV [OAT_Y55_N54K]
Reply text: not satisfied

Inquiry: Determine whether measured phosphorylation enrichment meets or exceeds 0.7 for ADARMYGVLPW [PLP1_Y207]
Reply text: satisfied
